- System: Human immunodeficiency virus 1
- method.summary: Antiviral activity against HIV-1 NL4-3 expressing VSV-G envelope infected in human 293T cells assessed as inhibition of viral replication after 48 hrs by Luciferase reporter gene assay
- Assay type: functional, organism-based
Activity calls are given as the source filed them. No cut-off for these calls is given here.

[
  {
    "query.smiles": "C=C(C)[C@@H](CC[C@H](C)[C@@H]1CC[C@]2(C)C3=C(CC[C@@]12C)[C@@]1(C)CC[C@H](O)C(C)(C)[C@@H]1CC3=O)OO",
    "assayed.target": "Human immunodeficiency virus 1",
    "inhibition": "inactive"
  },
  {
    "query.smiles": "C=C(C)[C@H](O)CC[C@H](C)[C@@H]1CC[C@]2(C)C3=C(CC[C@@]12C)[C@@]1(C)CC[C@H](O)C(C)(C)[C@@H]1CC3",
    "assayed.target": "Human immunodeficiency virus 1",
    "inhibition": "inactive"
  },
  {
    "query.smiles": "C=C(C)[C@H](CC[C@H](C)[C@@H]1CC[C@]2(C)C3=C(CC[C@@]12C)[C@@]1(C)CC[C@H](O)C(C)(C)[C@@H]1CC3=O)OO",
    "assayed.target": "Human immunodeficiency virus 1",
    "inhibition": "inactive"
  }
]
